Listing of entries alongside the reported apparent KD of MS2 coat protein.
- System: MS2 coat protein
- assay comment: apparent KD of MS2 coat protein; designed switch direction (-1 OFF switch, 1 ON switch): -1; higher = weaker reporter binding
- condition details: Eterna round: R95; input ligand: microRNA oligo, concentration not stated
The answer consists of two parts: a number and, after it, its unit.

Recorded apparent KD of MS2 coat protein, per entry:
AUAUCAAGCAAGGAUAUGCAAAUGGUUAUUUAUGCAGAAGGUGCAACAUGAGGAUCACCCAUGUUUCUGGGUUU [JR_E6_Sub049] (puzzle: Exclusion 6)
48.2 nM
GGUCAAGAACAGCUCCGCGCUGCCCUCGACCGCUCAUUUACAUGAGGAUCACCCAUGUUUUUUGCUUGUCUUGUUAC [Usvetive] (puzzle: Sensor v3, turn-off variant 2)
91.8 nM

Here's the next entry for you.
**Q:** What measured apparent KD of MS2 coat protein goes with GAUCCUUAAGUCAGGAUAUCAAGCAAACUCUAAAUUGAGAAGGGACAUGAGGAUCACCCAUGUCACCGAAAUAA [Zabema] (puzzle: Brourd's mod of Exclusion 4) ?
**A:** 13 nM
